Reference for the values: patent US20220195012A1

- Substrate: CP C3-convertase (C4b2a) (UniProt P0C0L4)
- Sequence (P0C0L4 757-1446 limits assumed, chain 1 of 4): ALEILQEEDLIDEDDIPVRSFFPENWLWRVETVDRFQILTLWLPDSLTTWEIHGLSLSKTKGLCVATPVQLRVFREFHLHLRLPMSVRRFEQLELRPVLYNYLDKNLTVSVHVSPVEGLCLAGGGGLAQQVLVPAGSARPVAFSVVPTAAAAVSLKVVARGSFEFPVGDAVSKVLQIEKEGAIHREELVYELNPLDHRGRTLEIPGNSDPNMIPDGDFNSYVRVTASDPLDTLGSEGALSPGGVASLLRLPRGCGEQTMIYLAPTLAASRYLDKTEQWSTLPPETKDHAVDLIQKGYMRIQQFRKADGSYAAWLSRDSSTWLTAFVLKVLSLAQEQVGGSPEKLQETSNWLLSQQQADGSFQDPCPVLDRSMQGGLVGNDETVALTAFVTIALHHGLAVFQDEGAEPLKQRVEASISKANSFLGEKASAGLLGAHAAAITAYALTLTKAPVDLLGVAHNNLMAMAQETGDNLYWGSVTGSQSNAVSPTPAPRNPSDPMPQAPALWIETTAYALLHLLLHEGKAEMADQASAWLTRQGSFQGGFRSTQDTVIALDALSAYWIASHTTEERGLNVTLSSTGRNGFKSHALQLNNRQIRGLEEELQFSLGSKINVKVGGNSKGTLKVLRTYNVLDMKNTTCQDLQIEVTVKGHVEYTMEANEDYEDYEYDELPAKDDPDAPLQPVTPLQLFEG
- Sequence (P0C0L4 20-675 limits assumed, chain 2 of 4): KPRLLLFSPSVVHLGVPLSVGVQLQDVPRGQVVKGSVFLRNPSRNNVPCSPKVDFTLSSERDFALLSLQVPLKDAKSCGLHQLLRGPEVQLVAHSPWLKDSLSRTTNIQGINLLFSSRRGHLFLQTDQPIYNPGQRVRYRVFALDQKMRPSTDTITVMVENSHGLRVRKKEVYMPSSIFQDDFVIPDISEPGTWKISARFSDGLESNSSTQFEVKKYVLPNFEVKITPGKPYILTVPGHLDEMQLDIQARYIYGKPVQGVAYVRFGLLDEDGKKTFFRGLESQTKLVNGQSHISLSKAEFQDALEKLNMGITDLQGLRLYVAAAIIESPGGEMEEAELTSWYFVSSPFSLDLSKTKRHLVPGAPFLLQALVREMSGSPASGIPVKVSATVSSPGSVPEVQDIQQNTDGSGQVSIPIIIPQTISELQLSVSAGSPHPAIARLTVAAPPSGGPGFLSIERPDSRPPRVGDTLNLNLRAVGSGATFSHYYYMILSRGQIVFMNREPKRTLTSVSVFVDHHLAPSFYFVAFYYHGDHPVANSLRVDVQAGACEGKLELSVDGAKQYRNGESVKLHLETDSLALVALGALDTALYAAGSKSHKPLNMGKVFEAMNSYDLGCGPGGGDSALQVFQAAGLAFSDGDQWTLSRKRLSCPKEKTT
- Sequence (P0C0L4 1454-1744 limits assumed, chain 3 of 4): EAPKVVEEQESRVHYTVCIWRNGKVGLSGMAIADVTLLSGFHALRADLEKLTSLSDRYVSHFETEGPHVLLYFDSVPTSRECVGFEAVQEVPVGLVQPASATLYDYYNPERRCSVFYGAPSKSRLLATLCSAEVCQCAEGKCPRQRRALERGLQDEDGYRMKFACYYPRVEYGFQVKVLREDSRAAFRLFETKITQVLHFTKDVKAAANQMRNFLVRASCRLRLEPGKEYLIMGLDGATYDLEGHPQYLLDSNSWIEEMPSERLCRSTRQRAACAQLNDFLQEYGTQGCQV
- Sequence (P06681 244-752 limits assumed, chain 4 of 4, further chain): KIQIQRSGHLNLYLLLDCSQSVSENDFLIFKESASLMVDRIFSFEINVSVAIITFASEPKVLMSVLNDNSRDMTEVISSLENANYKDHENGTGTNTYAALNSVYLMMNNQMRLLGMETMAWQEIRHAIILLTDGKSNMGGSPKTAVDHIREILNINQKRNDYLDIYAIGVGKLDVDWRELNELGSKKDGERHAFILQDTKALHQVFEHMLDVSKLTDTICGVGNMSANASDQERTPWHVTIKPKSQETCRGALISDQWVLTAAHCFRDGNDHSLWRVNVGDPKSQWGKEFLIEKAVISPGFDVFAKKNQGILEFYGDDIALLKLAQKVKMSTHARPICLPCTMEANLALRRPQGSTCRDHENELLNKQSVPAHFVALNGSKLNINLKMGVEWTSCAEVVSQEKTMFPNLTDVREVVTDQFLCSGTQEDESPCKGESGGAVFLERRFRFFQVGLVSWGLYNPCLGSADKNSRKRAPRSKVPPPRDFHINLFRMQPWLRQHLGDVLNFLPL
- assay.procedure: cell-based or functional assay

- binder: "D2D3M3M4 (Multi-5) or DCP (decay-cofactor protein) (protein) CEVPTRLNSASLKQPYITQNYFPVGTVVEYECRPGYRREPSLSPKLTCLQNLKWSTAVEFCKKKSCPNPGEIRNGQIDVPGGILFGATISFSCNTGYKLIGSTSSFCLISGSSVQWSDKLPICEKVLCTPPPKIKNGKHTFSEVEVFEYLDAVTYSCDPAPGPDPFSLIGESTIYCGDNSVWSRAAPECKVVKCRFPVVENGKQISGFGKKFYYKATVMFECDKGFYLDGSDTIVCDSNSTWDPPVPKCLKVL"
  Relative CP-DAA: 1.3
